# assay.method.text: Solubility in water
experimental.endpoint: solubility (mg/mL)

INSERT INTO results (smiles_entry, test_result) VALUES
  ('N[C@@H](CSSC[C@H](N)C(=O)O)C(=O)O', 0.09),
  ('NCCCC[C@H](N)C(=O)O', 666);
